System: Saccharomyces cerevisiae;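 note: PSI is a weighted mean of sequencing reads over stability bins, variants kept only with over 10 reads, mCherry proximal and sfGFP distal, peptide attached via GGGS linker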
Assay: protein stability index of tFT-peptide fusion (C-terminal peptide) (PSI (0-1 scale)); higher = more stable (slower turnover)
Settings: genetic background: wild type; temperature: 30 C
Property Name: protein stability index

[
  {
    "Sequence Record": "RAPPRLHPPFPP",
    "System": "Saccharomyces cerevisiae",
    "Experimental Result": 0.676
  },
  {
    "Sequence Record": "SFPLPSPSPLLP",
    "System": "Saccharomyces cerevisiae",
    "Experimental Result": 0.712
  },
  {
    "Sequence Record": "SGEVIRVTDWLV",
    "System": "Saccharomyces cerevisiae",
    "Experimental Result": 0.719
  },
  {
    "Sequence Record": "EDFCMVEQPGVE",
    "System": "Saccharomyces cerevisiae",
    "Experimental Result": 0.701
  },
  {
    "Sequence Record": "PPLRPPPPPPPP",
    "System": "Saccharomyces cerevisiae",
    "Experimental Result": 0.668
  },
  {
    "Sequence Record": "PYHLFLSFSLSR",
    "System": "Saccharomyces cerevisiae",
    "Experimental Result": 0.725
  },
  {
    "Sequence Record": "DPKNEINAKENI",
    "System": "Saccharomyces cerevisiae",
    "Experimental Result": 0.689
  },
  {
    "Sequence Record": "VEAFIVDETRVV",
    "System": "Saccharomyces cerevisiae",
    "Experimental Result": 0.698
  },
  {
    "Sequence Record": "SDFAPTRPPPAP",
    "System": "Saccharomyces cerevisiae",
    "Experimental Result": 0.634
  },
  {
    "Sequence Record": "LALGICRLSSAG",
    "System": "Saccharomyces cerevisiae",
    "Experimental Result": 0.76
  },
  {
    "Sequence Record": "GTRAGGGWSCES",
    "System": "Saccharomyces cerevisiae",
    "Experimental Result": 0.711
  },
  {
    "Sequence Record": "KYKEEINEKIFN",
    "System": "Saccharomyces cerevisiae",
    "Experimental Result": 0.646
  },
  {
    "Sequence Record": "IIRKTKSKQEMI",
    "System": "Saccharomyces cerevisiae",
    "Experimental Result": 0.706
  },
  {
    "Sequence Record": "FGFSSGRVRQRV",
    "System": "Saccharomyces cerevisiae",
    "Experimental Result": 0.754
  },
  {
    "Sequence Record": "KIGYTISGFVIS",
    "System": "Saccharomyces cerevisiae",
    "Experimental Result": 0.707
  },
  {
    "Sequence Record": "HKEHLDNPRLRP",
    "System": "Saccharomyces cerevisiae",
    "Experimental Result": 0.714
  },
  {
    "Sequence Record": "AAGPGRWRWRGA",
    "System": "Saccharomyces cerevisiae",
    "Experimental Result": 0.643
  },
  {
    "Sequence Record": "PPSLFLLLKVFF",
    "System": "Saccharomyces cerevisiae",
    "Experimental Result": 0.325
  },
  {
    "Sequence Record": "GGGGGVGVVRVG",
    "System": "Saccharomyces cerevisiae",
    "Experimental Result": 0.66
  },
  {
    "Sequence Record": "PTTLCLSDRPQP",
    "System": "Saccharomyces cerevisiae",
    "Experimental Result": 0.721
  },
  {
    "Sequence Record": "YSTFIPYSPCTA",
    "System": "Saccharomyces cerevisiae",
    "Experimental Result": 0.644
  },
  {
    "Sequence Record": "VVNVVGRVVPKG",
    "System": "Saccharomyces cerevisiae",
    "Experimental Result": 0.74
  },
  {
    "Sequence Record": "PGPPFPMANTPF",
    "System": "Saccharomyces cerevisiae",
    "Experimental Result": 0.646
  },
  {
    "Sequence Record": "PIHCTVMGATTC",
    "System": "Saccharomyces cerevisiae",
    "Experimental Result": 0.657
  },
  {
    "Sequence Record": "PPPPPPPPRLTF",
    "System": "Saccharomyces cerevisiae",
    "Experimental Result": 0.698
  },
  {
    "Sequence Record": "GPVRTEFWLYVW",
    "System": "Saccharomyces cerevisiae",
    "Experimental Result": 0.553
  },
  {
    "Sequence Record": "VCTRACFLFAYP",
    "System": "Saccharomyces cerevisiae",
    "Experimental Result": 0.582
  },
  {
    "Sequence Record": "LSSRSDVLTYFV",
    "System": "Saccharomyces cerevisiae",
    "Experimental Result": 0.639
  },
  {
    "Sequence Record": "GGSCTRNLLRYW",
    "System": "Saccharomyces cerevisiae",
    "Experimental Result": 0.727
  },
  {
    "Sequence Record": "PVEGSTPPPGTT",
    "System": "Saccharomyces cerevisiae",
    "Experimental Result": 0.614
  },
  {
    "Sequence Record": "EKRAKKKVKIII",
    "System": "Saccharomyces cerevisiae",
    "Experimental Result": 0.62
  },
  {
    "Sequence Record": "NIKKKINNTVKN",
    "System": "Saccharomyces cerevisiae",
    "Experimental Result": 0.666
  },
  {
    "Sequence Record": "RAPTRDQCPCPG",
    "System": "Saccharomyces cerevisiae",
    "Experimental Result": 0.68
  },
  {
    "Sequence Record": "RRGPDRCSSLPS",
    "System": "Saccharomyces cerevisiae",
    "Experimental Result": 0.664
  },
  {
    "Sequence Record": "RPAVVPPPFAPL",
    "System": "Saccharomyces cerevisiae",
    "Experimental Result": 0.76
  },
  {
    "Sequence Record": "RWFGRFSFCLFF",
    "System": "Saccharomyces cerevisiae",
    "Experimental Result": 0.5
  },
  {
    "Sequence Record": "PPDYPAPPPPPL",
    "System": "Saccharomyces cerevisiae",
    "Experimental Result": 0.695
  },
  {
    "Sequence Record": "IYRTYEAKPGHP",
    "System": "Saccharomyces cerevisiae",
    "Experimental Result": 0.69
  },
  {
    "Sequence Record": "RSANIINPHIFP",
    "System": "Saccharomyces cerevisiae",
    "Experimental Result": 0.758
  },
  {
    "Sequence Record": "TGCRAVPDLNAD",
    "System": "Saccharomyces cerevisiae",
    "Experimental Result": 0.695
  },
  {
    "Sequence Record": "GLSRAWVAGVRG",
    "System": "Saccharomyces cerevisiae",
    "Experimental Result": 0.735
  }
]
